# TARGET DESC: affinity purified antibody IHuP#002-001-ABL-08
# PROTOCOL NOTES: bridging/competition ADA assay, 10 ug/ml ISV vs labelled ISV
PARAMETER MEASURED: ECLU confirmatory assay (ECLU)

INSERT INTO results (binder, value_observed) VALUES
  ('SEQ ID NO: 30, Wildtype VHH + A14P + R39Q + K83R + T91Y + Q108L + 3 A''s at C-terminus (A114 + A115 + A116) (VHH) VHH: EVQLVESGGGLVQPGGSLRLSCAASGRTFNNYAMGWFRQAPGKEREFVAAITRSGVRSGVSAIYGDSVKDRFTISRDNAKNTLYLQMNSLRPEDTAVYYCAASAIGSGALRRFEYDYSGQGTLVTVSS', 3300),
  ('SEQ ID NO: 24, Wildtype VHH + A14P (VHH) VHH: EVQLVESGGGLVQPGGSLRLSCAASGRTFNNYAMGWFRRAPGKEREFVAAITRSGVRSGVSAIYGDSVKDRFTISRDNAKNTLYLQMNSLKPEDTAVYTCAASAIGSGALRRFEYDYSGQGTQVTVSS', 268),
  ('SEQ ID NO: 29, Wildtype VHH + A14P + R39Q + K83R + T91Y + Q108L + 1 additional A at C-terminus (A114) (VHH) VHH: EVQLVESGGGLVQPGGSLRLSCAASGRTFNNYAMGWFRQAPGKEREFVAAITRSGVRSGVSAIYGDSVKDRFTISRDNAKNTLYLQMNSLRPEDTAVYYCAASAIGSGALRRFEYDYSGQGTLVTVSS', 1210),
  ('SEQ ID NO: 23, Wildtype VHH (VHH) VHH: EVQLVESGGGLVQAGGSLRLSCAASGRTFNNYAMGWFRRAPGKEREFVAAITRSGVRSGVSAIYGDSVKDRFTISRDNAKNTLYLQMNSLKPEDTAVYTCAASAIGSGALRRFEYDYSGQGTQVTVSS', 2710);
